Test: NCI Yeast Anticancer Drug Screen. Data for the mec2-1 strain (AID 157)
Conditions: S. cerevisiae mec2-1 strain, at 50.0 µM (retest, dose inferred, filed as 5.0)
Compounds without any hit were thinned out: in the full panel of roughly 79,000, 15% have a hit. Calls of active or inactive are those of the source. Cut-off read from the data, not from the text of the source: active = growth inhibition above about 70%; inactive = the rest.
I would appreciate it if you answered using one of these outcomes: 1 = active, -1 = inactive

Please review the entries below; each comes with its answer.
# molecule, group
data = [
    ("CCOC(=O)c1[nH]n(-c2ccccc2)c(=O)c1C=NC(=S)C(N)=S", 1),
    ("NCCNCCNc1ccc(NCCNCCN)c2c1C(=O)c1c(O)ccc(O)c1C2=O", -1),
    ("COC(=O)NC1C(C)OC(OC2C/C=C(/C)C3C=CC4C(OC5CC(OC6CC(O)C(OC7CC(O)C(OC)C(C)O7)C(C)O6)C(O)C(C)O5)C(C)CC(C)C4C3(C)/C(O)=C3\\C(=O)OC4(CC(C)C(CO)=CC4/C=C\\2C)C3=O)CC1(C)[N+](=O)[O-] (stereo not drawn)", -1),
    ("Cc1ccccc1N=Cc1cc(Cl)ccc1O", -1),
    ("CC(C)(C)C1=CC(=CC=C2C=CN(CCCCCCCCCCCO)C=C2)C=C(C(C)(C)C)C1=O", 1),
]

Hello, I am checking results. What call was entered for Oc1ccc2c(c1)C(O)CCCC2 (stereo not drawn) ?
1

Hello, I am checking results. What call was entered for CCN(CC)CCNc1ccc([N+](=O)[O-])c2nc3ccccc3c(N)c12 ?
-1

Hello, I am checking results. What call was entered for Nc1n[n+]([O-])c2ccc(Cl)cc2[n+]1[O-] ?
1

###

Test: NCI Yeast Anticancer Drug Screen. Data for the bub3 strain (AID 167)
Details: S. cerevisiae bub3 mutant strain, at 1.2 µM, hits give high values
Experimental: Growth inhibition of yeast strains with defined genetic alterations is measured as a screen for potential anti-cancer activity. Selected strains with alterations in DNA damage repair or cell cycle control were exposed to compounds and growth inhibition was measured relative to vehicle treated controls. The strain used in this assay is bub3
This is part of a sample that, as a whole, favours compounds with a hit. Of some 79,000 tested, about 15% had one in any assay. Calls of active or inactive are those of the source. Rule as the data show it: active = growth inhibition above about 70%; inactive = the rest.
readout.label: growth inhibition

# count of solved cases: 2
# molecule, growth inhibition
data = [
    ("CN(C)c1ccc(C2CC(C)(O)Oc3cc4c(cc32)OCO4)cc1 (stereo not drawn)", "-5% (inactive)"),
    ("Cc1cccc(/C=N/NC(=S)N2CCCC2)n1", "-13% (inactive)"),
]

For the molecule CCOC(=O)c1cc([N+](=O)[O-])c(Sc2ncnc3nc[nH]c23)c([N+](=O)[O-])c1 , what growth inhibition is on record?
-19% (inactive)

###

Assay: NCI Yeast Anticancer Drug Screen. Data for the sgs1 mgt1 strain (AID 161);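 note: 0% = growth of cultures given vehicle only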
Settings: S. cerevisiae sgs1 mgt1 strain, at 50.0 µM (retest, dose inferred, filed as 5.0), hits give high values
About 79,000 compounds went through this panel and 15% of them were active in at least one assay; those are over-represented in the sample as a whole.
Overview of reported growth inhibition across a group of compounds:
Only the number, expressed in %, is required.

# compound, growth inhibition [%]
rows = [
    ("CCOC(=O)CC1(C(=O)OCC)c2[nH]c3ccccc3c2CCN1Cc1ccccc1 (stereo not drawn)", 43),
    ("O=C1c2ccccc2C(=O)c2cc(CCl)ccc21", 30),
]

Shifting focus to the compound that follows.
For the compound S=c1[nH]c2cc3ccccc3cc2[nH]1 , what growth inhibition is on record?
15

The measurements presented in this section are drawn from PubChem BioAssay (NCI).
